target: mPGES-1 in A549 cells (Homo sapiens (Human), UniProt O14684); test: A549 cell-based assay (PGE2 formation, 50% human serum); conditions: IL-1β 5 ng/ml, 10 nM arachidonic acid, 20-24 h, read-out: mPGES-1 inhibitory effect IC50 in the cell assay
Sequence (O14684 whole entry): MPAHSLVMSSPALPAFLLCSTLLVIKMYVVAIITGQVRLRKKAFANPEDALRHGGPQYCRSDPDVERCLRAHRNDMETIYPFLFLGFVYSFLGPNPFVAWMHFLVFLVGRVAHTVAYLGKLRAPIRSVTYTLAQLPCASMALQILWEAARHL
reported_metric: pIC50
Numbers only, as −log10 of the molar value.

Cc1cc(C(=O)NCc2ccc(Cl)c(Nc3nc4cc(C(=O)N[C@H]5CC[C@H](C(F)(F)F)CC5)c(N5CC6CC6C5)cc4n3C)c2Cl)no1 (stereo partly drawn)    7.92
Cn1c(Nc2c(Cl)ccc(CNC(=O)[C@@](C)(O)C(F)(F)F)c2Cl)nc2cc(C(=O)N[C@H]3CC[C@H](C(F)(F)F)CC3)c(N3CCC(C(F)(F)F)CC3)cc21    9.00
COc1ncccc1C(=O)NCc1ccc(Cl)c(Nc2nc3cc(C(=O)N[C@H]4CC[C@H](C(F)(F)F)CC4)c(N4CC5CC5C4)cc3n2C)c1Cl (stereo partly drawn)    6.97
Cn1c(Nc2c(Cl)ccc(CNC(=O)C(C)(C)C)c2Cl)nc2cc(C(=O)N[C@H]3CC[C@H](C(F)(F)F)CC3)c(N3CC(F)(F)C3)cc21    8.60

Would you kindly look at the next entry?
**Q:** For mPGES-1 in A549 cells (Homo sapiens (Human), UniProt O14684), provide pIC50 of "Cn1c(Nc2c(Cl)ccc(CNC(=O)C(C)(C)C)c2Cl)nc2cc(C(=O)N[C@H]3CC[C@H](C(F)(F)F)CC3)c(N3CC4(COC4)C3)cc21" please.
**A:** 7.77
